Biological target: UniProt Q01959
Sequence (Q01959 whole entry): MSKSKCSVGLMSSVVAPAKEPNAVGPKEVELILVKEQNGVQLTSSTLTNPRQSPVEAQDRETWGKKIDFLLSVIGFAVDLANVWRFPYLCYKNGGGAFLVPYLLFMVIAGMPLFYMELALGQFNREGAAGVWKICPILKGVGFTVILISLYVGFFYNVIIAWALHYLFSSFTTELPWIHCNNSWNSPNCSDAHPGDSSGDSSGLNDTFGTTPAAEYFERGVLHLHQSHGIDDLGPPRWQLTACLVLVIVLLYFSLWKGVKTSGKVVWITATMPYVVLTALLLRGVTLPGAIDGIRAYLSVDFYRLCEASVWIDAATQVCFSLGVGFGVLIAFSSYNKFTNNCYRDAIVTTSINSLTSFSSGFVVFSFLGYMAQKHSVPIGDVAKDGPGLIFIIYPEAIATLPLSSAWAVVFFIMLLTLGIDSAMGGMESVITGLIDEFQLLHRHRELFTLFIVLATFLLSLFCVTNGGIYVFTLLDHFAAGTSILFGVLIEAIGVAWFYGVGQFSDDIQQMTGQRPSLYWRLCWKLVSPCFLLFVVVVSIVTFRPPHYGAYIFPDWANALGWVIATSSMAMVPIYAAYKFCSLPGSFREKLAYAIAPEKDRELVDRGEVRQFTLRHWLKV
Experiment: GPCRScan assay: inhibition of DAT
Design: radioligand conc. used [nm] 3.6 – 16.0, parental cells stable HEK
Conditions: read-out: Ki
MEASURED_ATTRIBUTE: Ki (µM)
Answer with a number only, understood to be in µM.

Ki lookup needed for "CC(=O)Nc1ccc(-c2cc(-c3ccccc3)nc3cc(C(=O)NCCCn4ccnc4)nn23)cc1" , thanks. 6.55

* * *

Target: 5-hydroxytryptamine receptor 2B (Homo sapiens, UniProt P41595)
Sequence (P41595 whole entry): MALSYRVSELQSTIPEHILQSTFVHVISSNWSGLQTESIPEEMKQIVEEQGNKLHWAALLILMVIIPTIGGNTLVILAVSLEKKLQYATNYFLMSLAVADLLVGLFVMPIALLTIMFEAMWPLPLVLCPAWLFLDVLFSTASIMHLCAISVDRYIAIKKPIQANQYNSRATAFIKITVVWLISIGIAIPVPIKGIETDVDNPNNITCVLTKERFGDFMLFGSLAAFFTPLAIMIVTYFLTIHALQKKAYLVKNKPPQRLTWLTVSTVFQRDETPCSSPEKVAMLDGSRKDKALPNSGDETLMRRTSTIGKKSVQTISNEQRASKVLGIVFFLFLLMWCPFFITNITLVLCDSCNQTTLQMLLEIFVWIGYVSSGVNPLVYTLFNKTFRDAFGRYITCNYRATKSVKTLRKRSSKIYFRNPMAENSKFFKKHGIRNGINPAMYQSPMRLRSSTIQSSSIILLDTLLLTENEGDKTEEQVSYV
MEASURED_ATTRIBUTE: Ki

Ki lookup needed for "O=C(NCCCn1ccnc1)c1cc2nc(-c3ccccc3)cc(-c3ccccc3)n2n1" , thanks. 897 nM

* * *

Assign Ki to each entry below.
Assay: GPCRScan assay: inhibition of GABA/PBR
Set-up: species or system Rattus norvegicus; radioligand conc. used [nm] 0.3 – 2.0, parental cells brain tissue
Answer with a number only, understood to be in µM.

Ki lookup needed for "CC(=O)Nc1ccc(-c2cc(-c3ccccc3)nc3cc(C(=O)NCCCn4ccnc4)nn23)cc1" , thanks. 0.306

Ki lookup needed for "O=C(NCCCn1ccnc1)c1cc2nc(-c3ccccc3)cc(-c3ccccc3)n2n1" , thanks. 0.498

* * *

Biological target: 5-hydroxytryptamine receptor 1B (Homo sapiens)
Sequence (P28222 whole entry): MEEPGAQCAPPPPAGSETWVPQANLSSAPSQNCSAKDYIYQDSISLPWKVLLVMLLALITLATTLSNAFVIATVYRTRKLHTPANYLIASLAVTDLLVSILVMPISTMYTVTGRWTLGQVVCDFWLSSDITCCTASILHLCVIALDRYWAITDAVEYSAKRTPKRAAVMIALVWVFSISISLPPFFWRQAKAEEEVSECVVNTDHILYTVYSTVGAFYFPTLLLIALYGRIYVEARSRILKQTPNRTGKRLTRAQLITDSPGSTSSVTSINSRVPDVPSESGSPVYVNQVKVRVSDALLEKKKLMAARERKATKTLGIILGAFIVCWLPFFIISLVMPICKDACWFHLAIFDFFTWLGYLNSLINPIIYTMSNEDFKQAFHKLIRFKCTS
Assay: GPCRScan assay: inhibition of 5-HT1B
Parameters: radioligand conc. used [nm] 0.6 – 1.5, parental cells stable HEK
Conditions: read-out: Ki
MEASURED_ATTRIBUTE: pKi
In plain terms, pKi is the concentration in mol/L turned into minus its base-10 logarithm.

pKi lookup needed for "O=C(NCCCn1ccnc1)c1cc2nc(-c3ccccc3)cc(-c3ccccc3)n2n1" , thanks. 6.32

* * *

Read-out record for Kappa-type opioid receptor (Homo sapiens): pKi
In plain terms, pKi is the concentration in mol/L turned into minus its base-10 logarithm.

Identify the measured pKi of "O=C(NCCCn1ccnc1)c1cc2nc(-c3ccccc3)cc(-c3ccccc3)n2n1" for Kappa-type opioid receptor (Homo sapiens). 5.93

Identify the measured pKi of "CC(=O)Nc1ccc(-c2cc(-c3ccccc3)nc3cc(C(=O)NCCCn4ccnc4)nn23)cc1" for Kappa-type opioid receptor (Homo sapiens). 6.70

The measured values listed here are drawn from ChEMBL document CHEMBL5058647.
